The reported numbers originate from the supplement of paper PMC11246515.

# total protein half-life in vivo annotations
- EXPERIMENTAL_DETAILS: total protein half-life in vivo (active degradation + dilution); higher = more stable protein
- TEST_PARAMETERS: E. coli NCM3722 delta-hslV; growth: N-lim chemostat; doubling time 6 h

# INPUT_SEQUENCE, U, total protein half-life in vivo
rows = [
    ("MVRIYTLTLAPSLDSATITPQIYPEGKLRCTAPVFEPGGGGINVARAIAHLGGSATAIFPAGGATGEHLVSLLADENVPVATVEAKDWTRQNLHVHVEASGEQYRFVMPGAALNEDEFRQLEEQVLEIESGAILVISGSLPPGVKLEKLTQLISAAQKQGIRCIVDSSGEALSAALAIGNIELVKPNQKELSALVNRELTQPDDVRKAAQEIVNSGKAKRVVVSLGPQGALGVDSENCIQVVPPPVKSQSTVGAGDSMVGAMTLKLAENASLEEMVRFGVAAGSAATLNQGTRLCSHDDTQKIYAYLSR", "h", 4.05),
    ("MPKKNEAPASFEKALSELEQIVTRLESGDLPLEEALNEFERGVQLARQGQAKLQQAEQRVQILLSDNEDASLTPFTPDNE [P0A8G9]", "h", 6.62),
    ("MKTALLLEKLEGQLATLRQRCAPVSQFATLSARFDRHLFQTRATTLQACLDEAGDNLAALRHAVEQQQLPQVAWLAEHLAAQLEAIAREASAWSLREWDSAPPKIARWQRKRIQHQDFERRLREMVAERRARLARVTDLVEQQTLHREVEAYEARLARCRHALEKIENRLARLTR", "h", 2.39),
    ("MDKFDANRRKLLALGGVALGAAILPTPAFATLSTPRPRILTLNNLHTGESIKAEFFDGRGYIQEELAKLNHFFRDYRANKIKSIDPGLFDQLYRLQGLLGTRKPVQLISGYRSIDTNNELRARSRGVAKKSYHTKGQAMDFHIEGIALSNIRKAALSMRAGGVGYYPRSNFVHIDTGPARHW [P0AB06]", "h", 2.76),
    ("MSDTNYAVIYDLHSHTTASDGCLTPEALVHRAVEMRVGTLAITDHDTTAAIAPAREEISRSGLALNLIPGVEISTVWENHEIHIVGLNIDITHPLMCEFLAQQTERRNQRAQLIAERLEKAQIPGALEGAQRLAQGGAVTRGHFARFLVECGKASSMADVFKKYLARGKTGYVPPQWCTIEQAIDVIHHSGGKAVLAHPGRYNLSAKWLKRLVAHFAEHHGDAMEVAQCQQSPNERTQLAALARQHHLWASQGSDFHQPCPWIELGRKLWLPAGVEGVWQLWEQPQNTTEREL", "h", 2),
    ("MELIFLGTSAGVPTRTRNVTAILLNLQHPTQSGLWLFDCGEGTQHQLLHTAFNPGKLDKIFISHLHGDHLFGLPGLLCSRSMSGIIQPLTIYGPQGIREFVETALRISGSWTDYPLEIVEIGAGEILDDGLRKVTAYPLEHPLECYGYRIEEHDKPGALNAQALKAAGVPPGPLFQELKAGKTITLEDGRQINGADYLAAPVPGKALAIFGDTGPCDAALDLAKGVDVMVHEATLDITMEAKANSRGHSSTRQAATLAREAGVGKLIITHVSSRYDDKGCQHLLRECRSIFPATELANDFTVFNV [P0A8V0]", "h", 4.51),
    ("MENYLIDNLDRGILEALMGNARTAYAELAKQFGVSPGTIHVRVEKMKQAGIITGARIDVSPKQLGYDVGCFIGIILKSAKDYPSALAKLESLDEVTEAYYTTGHYSIFIKVMCRSIDALQHVLINKIQTIDEIQSTETLIVLQNPIMRTIKP [P0ACI6]", "h", 6.24),
    ("MKPGCTLFFLLCSALTVTTEAHAQTPDTATTAPYLLAGAPTFDLSISQFREDFNSQNPSLPLNEFRAIDSSPDKANLTRAASKINENLYASTALERGTLKIKSIQMTWLPIQGPEQKAAKAKAQEYMAAVIRTLTPLMTKTQSQKKLQSLLTAGKNKRYYTETEGALRYVVADNGEKGLTFAVEPIKLALSESLEGLNK", "h", 5.05),
    ("MAEIGIFVGTMYGNSLLVAEEAEAILTAQGHKATVFEDPELSDWLPYQDKYVLVVTSTTGQGDLPDSIVPLFQGIKDSLGFQPNLRYGVIALGDSSYVNFCNGGKQFDALLQEQSAQRVGEMLLIDASENPEPETESNPWVEQWGTLLS", "h", 5.34),
    ("MNTTLFRWPVRVYYEDTDAGGVVYHASYVAFYERARTEMLRHHHFSQQALMAERVAFVVRKMTVEYYAPARLDDMLEIQTEITSMRGTSLVFTQRIVNAENTLLNEAEVLVVCVDPLKMKPRALPKSIVAEFKQ [P0A8Z3]", "h", 6.41),
    ("MKVMRTTVATVVAATLSMSAFSVFAEASLTGAGATFPAPVYAKWADTYQKETGNKVNYQGIGSSGGVKQIIANTVDFGASDAPLSDEKLAQEGLFQFPTVIGGVVLAVNIPGLKSGELVLDGKTLGDIYLGKIKKWDDEAIAKLNPGLKLPSQNIAVVRRADGSGTSFVFTSYLAKVNEEWKNNVGTGSTVKWPIGLGGKGNDGIAAFVQRLPGAIGYVEYAYAKQNNLAYTKLISADGKPVSPTEENFANAAKGADWSKTFAQDLTNQKGEDAWPITSTTFILIHKDQKKPEQGTEVLKFFDWAYKTGAKQANDLDYASLPDSVVEQVRAAWKTNIKDSSGKPLY [P0AG82]", "h", 6.12),
    ("MSIRFARKADCAAIAEIYNHAVLYTAAIWNDQTVDADNRIAWFEARTLAGYPVLVSEENGVVTGYASFGDWRSFDGFRHTVEHSVYVHPDHQGKGLGRKLLSRLIDEARDCGKHVMVAGIESQNQASLHLHQSLGFVVTAQMPQVGTKFGRWLDLTFMQLQLDERTEPDAIG", "h", 4.9),
    ("MMSQPAKVLLLYAHPESQDSVANRVLLKPATQLSNVTVHDLYAHYPDFFIDIPREQALLREHEVIVFQHPLYTYSCPALLKEWLDRVLSRGFASGPGGNQLAGKYWRSVITTGEPESAYRYDALNRYPMSDVLRPFELAAGMCRMHWLSPIIIYWARRQSAQELASHARAYGDWLANPLSPGGR [P0A756]", "h", 5.89),
]
